Cited source: PubChem BioAssay (NCI)

System: TK-10 renal
Assay: NCI-60 one-dose screen, 48 h
Conditions: 10 µM unless noted
Method: Growth inhibition of the TK-10 human tumor cell line is measured as a screen for anti-cancer activity. Cells are grown in 96 well plates and exposed to the test compound for 48 hours. Compounds are tested at a single concentration, which is 10^-5 M for most compounds. The reported endpoint is percent growth (GI% or GIPRCNT), where numbers from 0 - 100% represent growth inhibition, and numbers from -100% - 0 represent cell death. For example, a value of 40 represents 60% growth inhibition. […]
This is part of a sample that, as a whole, favours compounds with a hit. Of some 83,000 tested, about 20% had one in any assay. Active and inactive are the calls of the source. How the source made its calls: active means growth percent below 10; inactive means the rest.
Assign a class; possible classes are yes for active, no for inactive

Recorded test call requested for COc1cc(/C=C2\CN(S(=O)(=O)c3ccccc3)C/C(=C\c3cc(CN4CCCCC4)c(O)c(OC)c3)C2=O)cc(CN2CCCCC2)c1O
yes

Recorded test call requested for CC/C=C\CCC/C=C1/C(=O)C=C[C@@H]1C/C=C\CCCC(=O)OC
no

Recorded test call requested for O=S(=O)(NCCNc1nccc(-c2c(-c3ccc(F)c(O)c3)nc3sccn23)n1)c1ccc(F)cc1
no

***
Recorded test call requested for COC(=O)c1c2c(c(C)[n+]([O-])c1C)C(=O)C(NCc1ccc(OC)cc1)=CC2=O
no

Recorded test call requested for COc1cccc(/C=N/NC(=O)c2ccccc2N2CCCC2)c1O
no

Recorded test call requested for COc1cc(Cl)c(C)cc1NC(=O)c1cc2ccccc2cc1O
yes

Recorded test call requested for CC(C)(C)n1cc(-c2ccnc(NCCCNS(=O)(=O)c3ccc(C(F)(F)F)cc3)c2)c(-c2cccc(F)c2)n1
no

Recorded test call requested for COC(=O)c1cc(Br)ccc1O
no

Recorded test call requested for Cc1nc2ccccc2c(/C=C/c2ccccc2)c1C(=O)/C=C/c1ccccc1
no

====

Listing of recorded growth by entry.
Test system: TK-10 renal
Assay: NCI-60 one-dose screen, 48 h (100 = growth as untreated, 0 = no growth, -100 = all killed)
Details: 10 µM unless noted
This is part of a sample that, as a whole, favours compounds with a hit. Of some 83,000 tested, about 20% had one in any assay.
Unit % implied. Number only.

Input Cc1ccc2c(=O)cc(C(=O)Nc3sc4c(c3C(=O)NCc3cccnc3)CCCC4)oc2c1C . Output growth: 116

***
Input COc1ccc(CCN2C(=O)/C(=C/c3ccc(C4Oc5ccccc5C5CC(c6ccccc6)=NN54)cc3)SC2=S)cc1 (centres undefined) . Output growth: 104

Input Cc1c(CN)cc(-c2ccc(Cl)cc2)n1-c1ccccc1 . Output growth: 66.3

====

Test system: OVCAR-4 ovarian
Test: NCI-60 one-dose screen, 48 h (100 = growth as untreated, 0 = no growth, -100 = all killed)
Conditions: 10 µM unless noted
Compounds without any hit were thinned out: in the full panel of roughly 83,000, 20% have a hit.
Listing of recorded growth by entry.
Unit % implied. Number only.

Some compounds with recorded growth:
The compound C=C(CNCCO)[C@@H]1CC[C@]2(CO)CC[C@]3(C)[C@H](CC[C@@H]4[C@@]5(C)CCC(N)C(C)(C)[C@@H]5CC[C@]43C)[C@@H]12 (some centres undefined) on OVCAR-4 ovarian: growth was 64.6

The compound CN(C)c1ccc(-c2ccc3c(c2)c(-c2ccccc2)nc(=O)n3C)cn1 on OVCAR-4 ovarian: growth was 74.6

The compound Cc1ccc(C2CC(c3nc(-c4ccc(Cl)cc4)oc3C)=NN2C(=O)c2ccncc2)cc1 (centres undefined) on OVCAR-4 ovarian: growth was 82.5

Please turn your attention to the following entry.
The compound CC(C)N1C(=O)/C(=c2\sc3n(c2=O)C2C(NN=3)N(C)C(=O)N2C)c2ccccc21 (centres undefined) on OVCAR-4 ovarian: growth was 85

====

Tested on: HT29 colon
Test: NCI-60 one-dose screen, 48 h (100 = growth as untreated, 0 = no growth, -100 = all killed)
Conditions: 10 µM unless noted
The panel holds about 83,000 compounds, 20% with a hit somewhere; the sample as a whole holds those more often. Activity calls are given as the source filed them. The calls were made as follows: active = growth percent below 10; inactive = the rest.
Listing of recorded growth by entry.

Some molecules with recorded growth:
Input CCOC(=O)c1[nH]c2c(c1C)-c1[nH]c(=O)c(S(=O)(=O)c3ccccc3)cc1SC2 . Output growth: 13.4% [100 µM] (inactive)

Input O=C(CN1CCCCCC1)Nc1nc2ccc(NCc3ccc(Cl)cc3)cc2s1 . Output growth: 95.7% (inactive)

Input CO[C@H](C(=O)[C@@H](O)[C@@H](C)O)[C@@H]1Cc2cc3cc(O[C@H]4C[C@@H](O[C@H]5C[C@@H](O)[C@H](O)C(C)O5)[C@H](O)C(C)(O)O4)cc(O)c3c(O)c2C(=O)[C@H]1O[C@H]1C[C@@H](O[C@H]2C[C@@H](O[C@H]3C[C@@H](OC)[C@H](O)C(C)O3)[C@@H](O)C(C)O2)[C@H](O)C(C)O1 (stereo not given in full) . Output growth: 11.3% (inactive)

Input CC(=O)c1sc2sc(C(C)=O)c(C)c2c1C . Output growth: 79.4% (inactive)

***
Input O=C(NNC(=O)c1ccc(NC(=O)c2ccccn2)cc1)Nc1ccc2ccccc2c1 . Output growth: 109% (inactive)

====

System: OVCAR-4 ovarian
Assay: NCI-60 one-dose screen, 48 h (100 = growth as untreated, 0 = no growth, -100 = all killed)
Conditions: 10 µM unless noted
This is part of a sample that, as a whole, favours compounds with a hit. Of some 83,000 tested, about 20% had one in any assay.
experimental.readout: growth (%)
Unit % implied. Number only.

Some compounds with recorded growth:
Input CC(C)(C)n1cc(-c2ccnc(NCCCNS(=O)(=O)c3cccc4ccccc34)c2)c(-c2cccc(F)c2)n1 . Output growth: 78.1

Input CC1CCN(C(=S)SCC(=O)NC(=O)c2ccccc2)CC1 . Output growth: 96.6

***
Input O=C(N/N=C\c1cccc([N+](=O)[O-])c1)N/N=C/c1cccc([N+](=O)[O-])c1 . Output growth: 105

Input O=C(O)c1ccc(-c2ccc(/C=N/Nc3nc(Nc4ccccc4)nc(N4CCCCC4)n3)o2)cc1 . Output growth: 77.1

Input Cc1ccc(N2C(=O)CCC2=O)cc1 . Output growth: 103

====

Tested on: NCI-H522 lung
Test: NCI-60 one-dose screen, 48 h
Conditions: 10 µM unless noted
The panel holds about 83,000 compounds, 20% with a hit somewhere; the sample as a whole holds those more often. Active and inactive are the calls of the source. Rule for the calls: active = growth percent below 10; inactive = the rest.
Assign a class; possible classes are TRUE = active, FALSE = inactive

Recorded test call requested for Cc1ccc(-c2csc(NC(=O)c3ccccc3CN3C(=O)c4ccccc4C3=O)n2)cc1
FALSE

Recorded test call requested for O=C1c2ccccc2C(=O)c2c1c(C(=O)NCc1ccccc1)c1ccccn21
FALSE

Recorded test call requested for N#Cc1cccc(C2C3=C(COC3=O)N(CCO)c3cc4c(cc32)OCO4)c1 (stereo not given)
FALSE

Recorded test call requested for Cc1ccc(C(=O)c2ccc(CC(=O)N=Nc3c(O)[nH]c4ccc(Br)cc34)n2C)cc1
FALSE

Recorded test call requested for FC(F)(F)Oc1cccc(-c2cnc3ccc(-c4ccncc4)nn23)c1
TRUE

====

Listing of recorded growth by entry.
Test system: SW-620 colon
Experiment: NCI-60 one-dose screen, 48 h (100 = growth as untreated, 0 = no growth, -100 = all killed)
Settings: 10 µM unless noted
Compounds without any hit were thinned out: in the full panel of roughly 83,000, 20% have a hit. Calls of active or inactive are those of the source. The calls were made as follows: active = growth percent below 10; inactive = the rest.

Input CC(C)CCN(CCC(C)C)CC(O)c1cc2c(c3ccccc13)CCCC2 (stereo not given) . Output growth: 59% (inactive)

Input O=[N+]([O-])c1ccc(-c2cn3nc(-c4c[nH]c5ccccc45)sc3n2)cc1 . Output growth: 99.9% (inactive)

Input Cc1nn(-c2ccccc2)c(N)c1N=C1NC(=O)/C(=C/c2ccc(Br)cc2)S1 . Output growth: 84.2% (inactive)

Input CCN(CC)Cc1cc(Nc2ccnc3cc(Cl)ccc23)ccc1O . Output growth: 88.4% (inactive)

Input CCCC(CC)(C(=O)Nc1ccc2nc(C)cc(N)c2c1)C(=O)Nc1ccc2nc(C)cc(N)c2c1 . Output growth: 112% (inactive)

Input COc1ccc2[nH]cc(-c3nc(-c4c[nH]c5c(Cl)nccc45)cs3)c2c1 . Output growth: 1.95% (active)

Input FC(F)(F)c1ccc(Cn2cc(CSc3nc4ccccc4s3)nn2)cc1 . Output growth: 98.1% (inactive)

Input CCSc1oc(C)nc1[P+](c1ccccc1)(c1ccccc1)c1ccccc1 . Output growth: 32.9% (inactive)

Input COc1ccc(C(=O)N2c3ccccc3Sc3ccccc32)c(C(F)(F)F)c1 . Output growth: 24.7% (inactive)

***
Input CC1C=CC(OC(=O)C(C)(O)CCC(O)(C(=O)OC2CC(O)C(C(C)C)CC2(C)O)C(C)C)(C(C)C)CC1 (stereo not given) . Output growth: -67.8% [4.63 µM] (active)
